# Experimental system: hErbB3.mmh (soluble monomeric human ErbB3 extracellular domain with C-terminal myc-myc-hexahistidine tag) (human, UniProt P21860 20-642)
# Sequence (P21860 other isoform, or with tags, fused parts or gaps): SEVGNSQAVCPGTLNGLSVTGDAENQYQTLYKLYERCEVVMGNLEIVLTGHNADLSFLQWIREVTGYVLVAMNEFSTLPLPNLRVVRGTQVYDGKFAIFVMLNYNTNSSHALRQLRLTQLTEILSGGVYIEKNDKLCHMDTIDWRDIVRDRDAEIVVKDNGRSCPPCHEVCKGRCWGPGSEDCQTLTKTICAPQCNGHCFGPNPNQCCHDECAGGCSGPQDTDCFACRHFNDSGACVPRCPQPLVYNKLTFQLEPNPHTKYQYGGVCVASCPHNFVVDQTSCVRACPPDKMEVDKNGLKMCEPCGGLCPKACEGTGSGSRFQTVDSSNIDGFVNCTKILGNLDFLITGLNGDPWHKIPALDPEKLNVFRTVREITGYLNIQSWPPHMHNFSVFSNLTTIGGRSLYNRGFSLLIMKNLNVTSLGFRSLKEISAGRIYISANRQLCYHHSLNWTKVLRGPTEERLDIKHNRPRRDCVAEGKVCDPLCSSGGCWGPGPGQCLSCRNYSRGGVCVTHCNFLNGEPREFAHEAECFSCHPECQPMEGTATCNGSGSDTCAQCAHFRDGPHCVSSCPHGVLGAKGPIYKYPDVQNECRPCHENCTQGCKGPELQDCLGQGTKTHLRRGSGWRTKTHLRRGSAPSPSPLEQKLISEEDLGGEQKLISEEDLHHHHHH
# Test: SPR (Biacore), 25 C, mAb capture format
The entries below come with measured log10 of kon values attached.
Heads up, the numbers here are log10 of kon in M⁻¹ s⁻¹ units.

Report log10 of kon for H4H2143P (antibody, V domains shown, Fully human, human IgG4 Fc (H4H prefix)) VH: EVQLVESGGGLVQPGRSLRLSCAASGFTFGDYAMHWVRQAPGKGLEWVSGINLNSGTIGYADSVKGRFTISRDNAKNSLYLQMNSLRAEDTAFYYCAKDIDGYYHYAMDVWGQGTTVTVSS VL: DVVMTQSPSFLSASVGDRVTITCWASQGISSYLAWYQQKPGKAPKLLIYDASTLESGVPSRFSGSGSGTEFTLTISNLQPEDFATYYCQQVNSYPLTFGGGTKVEIKR please. 6.26
